# Assay Method Text: yeast display, Sf9 membrane polyspecificity reagent, FACS + sequencing; frameworks hold sequencing errors
Property Measured: polyreactivity (PSR sort gate)

Biosequence: QVQLVESGGGLVQAGGSLRLSCAASGRTFYPYAMGWYRQAPGKERELVAAISSSGGSTYYADSVKGRFTISRDNAKNTVYLQMNSLKPEDTAVYYCAAAVYLQYLDDPTYGYWGQGTQVTVSS
Reported Measurement: high polyreactivity
//
Biosequence: QVQLVESGGGLVPAGGSLRLSCAASGRTFYTNSMGWYRQAPGKERELVAAITYSGGSTYYADSVKWRFTISRDNAKNTVYLHMNSLKPEDTAVYYCAADYRAPLDYWGQGTQVTVSS
Reported Measurement: low polyreactivity
//
Biosequence: QVQLVESGGGLVQAGGSLRLSCAASGRIFKWYAMGWSRQAPGKEREFVAGISGSAGRTYYADSVKGRFTISRDNAKNTVYLQMNSLKPEDTAVYYCAKDYNRPVEDWAKVNGYDYWGQGTQVTVSS
Reported Measurement: low polyreactivity
//
Biosequence: QVQLVESGGGLVQAGGSLRLSCAASGSTFRINAMGWYRLAPGKEREFVAAIRWNGGSTNYADSVKGRFTISRDNAKNTVYVQMNSLKPEDTAVYYCAADGYIGWRHIYEYWGQGTQVTVSS
Reported Measurement: low polyreactivity
//
Biosequence: QVQLVESGGGLVQAGGSLRLSSAASGSTFPYVKGWYRQAPGKESEFVAAISQRTGSTYYADSVKGRFTISRDNAKNTVYLQMNSLKPEDTAVYYCAKPGYLRPSRYDYWGQGTQVTVSS
Reported Measurement: high polyreactivity

---

# Assay Method Text: yeast display, Sf9 membrane polyspecificity reagent, FACS + sequencing; frameworks hold sequencing errors

Biosequence: QVQLVESGGGLVQAGGSLGLTCAASGSIFYGYAMAWYRPAPGKERELVAAISSSGGNTYYADSVKGRFTISRDNAKNTVYLQMNSLKPEDTAVYYCNKVYYQVKYDYWGQGTQVSVSS
polyreactivity (PSR sort gate): low polyreactivity

Biosequence: QVQLVESVGGLVQAGGSLRLSCAASGRTFSTKAMGWYRQAPGKERELVAVIPSSGVRTYYADSVKGRFTISRDNAKNTVYLQKNSLKPEDTAVYYCAKPYGYRLDYWGQGTQVTVSS
polyreactivity (PSR sort gate): high polyreactivity

Biosequence: QVQLVESGGGLVQAGGSLRISCAASGSIFARYAMGWYRQAPGKERELVAAISKRGGSTYYADSVKGRFTISRDNAKNTVYLQMNSLKPEDTAVYYCAAVSYPPYTTKMDYWGQGTLVTVSS
polyreactivity (PSR sort gate): high polyreactivity

Biosequence: QVQLVESGGGLVQAGGSLRLSCAASGSTFYRYAMGWYRQAPGKERELVAAISKRGGSTYYADSVKGRFTISRDNAKNTVYLQMNSLKPEDTAVYYCNAVGYKGTTYDYWGQGTQVTVSS
polyreactivity (PSR sort gate): high polyreactivity

Biosequence: QVQLVESGGGLVQAGGSLRLSCAASGSTFHYYVMRWYRQAPGKERELVAAIRRSGGTTYYADSVKGRFTISRDNAKNTVYLQMNSLKPEDTAVYYCAAPGWYGGYPSYYYWGQGTQVSVSS
polyreactivity (PSR sort gate): low polyreactivity

Biosequence: HVQLQESGGGLVQAGGSLRLICAASGNIVDDDIMGWYRQAPGKEREIVASITDGGSTNYADSLKGRFTISRDNAKNTVYQQMNILIREVTAVYYCAAIAYPDIPTYFVYDSDSFYWGQGTQETVSS
polyreactivity (PSR sort gate): high polyreactivity

Biosequence: QVQLVESGGGLVQAGGSLRLSCAASGRIFHVYVMGWYRPAPGKERELVAAITWRGGRTYYADSVKGRFTISRDNAKNTVYLQMNSLKPEDTAVYYCKAVAYWYDYQYDYWGQGTQVTVSS
polyreactivity (PSR sort gate): high polyreactivity

Biosequence: QVQLVESGGGLVQAGGSLRLSCAASGLIFRRYAMGWYRQAPGKERELVAAITSSGGSTYYADSVKGRFTISRDNAKNTVYLQMNSLKPEDTAVYYCNAYYTGRSAPDSWGQGTQVTVSS
polyreactivity (PSR sort gate): high polyreactivity

Biosequence: QVQLQESGGGLVQAGGSLRLICAASCTISQEDWMGWYRQAPGKEREFVAAIGLGSNTNYADSLKGRFTISRDNAKITVYLQMNSLKPEDTAVYYCNNDSTNNPFQYDYWGQGTQVTVSS
polyreactivity (PSR sort gate): low polyreactivity

Biosequence: QVQLVESGGGLVQAGVSLRLSCAASGFTFYYYAMVRNRQAPGKERELVAAITGSGGGTYYADSVKGRFTISRDYAKNTVYLQKNSLKPEDTAVYYCNALYVSTSDFVYWGQGTQVTVSS
polyreactivity (PSR sort gate): high polyreactivity

Biosequence: QVQIVESGAGLVQAGGSLRLSCAPSGRIFVTNAMGWYRQSPGKERELGAAITSGGSTYYADSVKGRFTISRDNAKNNVYLQMNSLKPEDTAVFYCARPVFSQRYVTTRYDYWGQGTQVTVSS
polyreactivity (PSR sort gate): low polyreactivity

---

# Assay Method Text: yeast display, Sf9 membrane polyspecificity reagent, FACS + sequencing; frameworks hold sequencing errors
Property Measured: polyreactivity (PSR sort gate)

Biosequence: QVQLVESGGGLVQAGGSLRLSCAASGSIFVYNAMGWYRPAPGKERELVAGITLIGGSTYYADSVKGRFTISRDNAKNTVYLQMNSLKPEDTAVYYCAVLVVGSTTQDEPYFSGVEHDYWGQGTQVTVSS
Property Measured: polyreactivity (PSR sort gate)
Reported Measurement: low polyreactivity
//
Biosequence: QVQLVESGGGLVQAGGSLRLSCAASGRIFPRNVMGWYRQAPGKERELVAAISSRGTRTYYADSVKGRFTISRDNAKNTVYLQMYSLKPEDTAVYYCAADGPYEGYDYWGQGTQVTVSS
Property Measured: polyreactivity (PSR sort gate)
Reported Measurement: high polyreactivity
//
Biosequence: QVQVVESGGGLVQAGGSLRLSCAASGRIYQYYDMGWYRQAPGKERELVATITSGGSTNYADSVKGRFTISRDNAKNTVYLQMNSLKPEDTAVYYCAALAYTASDYQPYDATEYNYWGQGTQVTVSS
Property Measured: polyreactivity (PSR sort gate)
Reported Measurement: low polyreactivity
//
Biosequence: QVQLVESGGGLVQAGGSLRLSCAASGSIFWNAMGWNKQAPGKERELVAAISWSGTRTYYADSVKGRFTISRDNAKNTVYLQMNSLKPEDTAVYYCNAVQWNAYYYWGQGTQVTVSS
Property Measured: polyreactivity (PSR sort gate)
Reported Measurement: high polyreactivity
//
Biosequence: QVQLVESGGGLVQAGGRLRIICAASGYIFRFNAMGWYRQAPGKERELVAVITKSGGSTYYADSVKGRFTISRDNAKNTVYLQMNRLKPEDSAVYYCNADRFYIDYTNTYDSIRDYWGQGTQVTVSS
Property Measured: polyreactivity (PSR sort gate)
Reported Measurement: low polyreactivity
//
Biosequence: QVQLVESGGGLVQAGGSLRLSCAASGYTFPSNAMGWYREAPGKERELVAAISSGARTNYADSVKGRFTISRDNAKNTVYLQMNSLKPEDTAVYYCNKAAASFRHFYGYGYWGQGTQVTVSS
Property Measured: polyreactivity (PSR sort gate)
Reported Measurement: low polyreactivity
//
Biosequence: QDQHVESAGGLVQAGGSLRLSCAATGFTFYYNPMRWYRQAPGKERELFASITRSGGPTYYADSVKGRFTISRDIAKHTVYLQMNSLKPEDTAVYYCARRYPGGYYWGHGTQVTVSS
Property Measured: polyreactivity (PSR sort gate)
Reported Measurement: high polyreactivity
//
Biosequence: QVQLVESGGGLVQAGGSLRLSCAASGSNLVWNAMGWYRQAPGKERELVAAIDRDTTTYYADSVKGRFTISRDNAKNTVYLQMNSLKPEDTAVYYCAAESWYYLYDYWGQGTQVTVSS
Property Measured: polyreactivity (PSR sort gate)
Reported Measurement: high polyreactivity
//
Biosequence: QVQLVESGRGLFHAGGSLRLSCAASGNTFGKYDMGWSIQAPGKERELVAAISKSSGSTYYADSVKGRFTISRDNAKNTVYFQMNSLKPEDTAVYYCAAEAYRYAWYDYWGQGTQVTVSS
Property Measured: polyreactivity (PSR sort gate)
Reported Measurement: high polyreactivity
//
Biosequence: QVHLVESGGGLVQAGGSLRLSCAASGSTFGYYAMGWYRQAPGKEREFVAAISSSGGSTYYADSVKGRFTISRDNAKNTVYLQMNSLKPEDTAVYYCARVGFPGFYWGQGTQVTVSS
Property Measured: polyreactivity (PSR sort gate)
Reported Measurement: high polyreactivity
//
Biosequence: QVQLVESGGGLVQAGGSLRLSCAASGRIFVINAMVWYRQAPGKERELVAGITSSGNTNYADSVKGRFTISRDNAKNTVYLQMNSLNPEDTAVYYCNAQVYLTWLTYWLYYPPNDYWGQGTQVTVSS
Property Measured: polyreactivity (PSR sort gate)
Reported Measurement: low polyreactivity
//
Biosequence: QVQLVESGGGLVQAGGSLRLSCAASGFIFPYNTMGWYRQATAKERELVAAIRYSAGRTYYADSVKGRFTISRDNAKNTVYLQMNSLKPEDTEVYYCNGVSSGDMDYWGQGTQVTVSS
Property Measured: polyreactivity (PSR sort gate)
Reported Measurement: high polyreactivity
//
Biosequence: KVQLVESGGGLVQAGGSLRLSCAASGIIFFPYAMAWYRQAPGKERELVASINISDSSTYYADSVKGRFTISRDNAKKTVYLQMNSLKPEDTAVYYGAADNRGDSWYWDGYWGQGTQVTVSS
Property Measured: polyreactivity (PSR sort gate)
Reported Measurement: low polyreactivity
//
Biosequence: QVQLVESGGGLVQAGGSLRLSCAASGSTFTDNTMGWYRQAPGKERELVAAISGVGSTYYADSVKGRFTISRDNAKNTVYLQLNSLKPEVSAVYYCAKPYYDGRTHFVSWGQGTQVTVSS
Property Measured: polyreactivity (PSR sort gate)
Reported Measurement: low polyreactivity
//
Biosequence: QVQLVESGAGLVQAGGSLRLSCAASGFNFRENAMGWYRQAPGKERELVAAISRSGGSTYYADSVKGRFTISRDNAKNTVYLQMNSLKPEDTAVYYCAAPKDYDYWGQGTKVTVSS
Property Measured: polyreactivity (PSR sort gate)
Reported Measurement: low polyreactivity
//
Biosequence: QVQLVESGGGLVQAGGSLRLSCAASGSIFAKNAMGWYRQAPGKERELVAAITFIGGDTYYADSVKGRFTISRDNAKNTVYLQMNSLKPEDTAVFYCNRALLVTSIYPYLFGSGWYDYWGQGTQVTVSS
Property Measured: polyreactivity (PSR sort gate)
Reported Measurement: low polyreactivity
//
Biosequence: QVQLVESGGGLVQAGGSLRLSCAASGSIFDFYAMGWDRQAPGKERELVAAISGSGGSTYYADSVKGRFTISRDNAKNTVYLQMNSLKPEDTAVYYCNAATYRTRHSNNGYWGQGTQVTVSS
Property Measured: polyreactivity (PSR sort gate)
Reported Measurement: low polyreactivity
//
Biosequence: QVQLVESGGGLVQAGGSLRLSCAASGSIFYGHAMGWYRQAPGKERELVATISWSTGSTYYADSVKGRFTISRDHAKNTVYLQMNSLKPEDTAVYYCAKEYFSKQWRGGYWGQGTQVTVSS
Property Measured: polyreactivity (PSR sort gate)
Reported Measurement: high polyreactivity
//
Biosequence: QVQLVESGGGLVQAGGSLRLSCAASGRIFGYYTMGWYRQAPGKEREFVASISTTGGSTYYADSVKGRFTISRDNAKNTVYLQMNSLKPEDTAVYYCNVYYWYGSRGSYALGKEYDYWGQGTQVTVSS
Property Measured: polyreactivity (PSR sort gate)
Reported Measurement: high polyreactivity
//
Biosequence: QVQLVESGGGLFQAGGSLRLSCAASGGIFFYYAMGGYRQAPGKERELVAAIRTNGGTTYYADSVKGRFTISRDNAKNTVYLQRNRLKTEDTAVYYCPAQPGGYYVRGEFDYWGQGTQVTLSS
Property Measured: polyreactivity (PSR sort gate)
Reported Measurement: low polyreactivity
//
Biosequence: QVQLVESVGGLVQAGGSLRLSCAASGRIFRWNAMGWYRQAPGKEREFVAAISWSGGSTYYADSVKGRFTISRDNAKNTFYLQMNSLKPEDTAVYYCNKVGYYCVGTSQEFDYWGQGTQVTVSS
Property Measured: polyreactivity (PSR sort gate)
Reported Measurement: high polyreactivity
